- target: F508delCFTR (Homo sapiens, UniProt P13569, DEL508-508)
- Construct: expressed in transfected cells; host or cells: CFBE41o- human lung derived epithelial cells (CFBE41o-F508delCFTR-HRP), doxycycline-inducible
- Sequence (P13569 with tags, fused parts or gaps DEL508-508): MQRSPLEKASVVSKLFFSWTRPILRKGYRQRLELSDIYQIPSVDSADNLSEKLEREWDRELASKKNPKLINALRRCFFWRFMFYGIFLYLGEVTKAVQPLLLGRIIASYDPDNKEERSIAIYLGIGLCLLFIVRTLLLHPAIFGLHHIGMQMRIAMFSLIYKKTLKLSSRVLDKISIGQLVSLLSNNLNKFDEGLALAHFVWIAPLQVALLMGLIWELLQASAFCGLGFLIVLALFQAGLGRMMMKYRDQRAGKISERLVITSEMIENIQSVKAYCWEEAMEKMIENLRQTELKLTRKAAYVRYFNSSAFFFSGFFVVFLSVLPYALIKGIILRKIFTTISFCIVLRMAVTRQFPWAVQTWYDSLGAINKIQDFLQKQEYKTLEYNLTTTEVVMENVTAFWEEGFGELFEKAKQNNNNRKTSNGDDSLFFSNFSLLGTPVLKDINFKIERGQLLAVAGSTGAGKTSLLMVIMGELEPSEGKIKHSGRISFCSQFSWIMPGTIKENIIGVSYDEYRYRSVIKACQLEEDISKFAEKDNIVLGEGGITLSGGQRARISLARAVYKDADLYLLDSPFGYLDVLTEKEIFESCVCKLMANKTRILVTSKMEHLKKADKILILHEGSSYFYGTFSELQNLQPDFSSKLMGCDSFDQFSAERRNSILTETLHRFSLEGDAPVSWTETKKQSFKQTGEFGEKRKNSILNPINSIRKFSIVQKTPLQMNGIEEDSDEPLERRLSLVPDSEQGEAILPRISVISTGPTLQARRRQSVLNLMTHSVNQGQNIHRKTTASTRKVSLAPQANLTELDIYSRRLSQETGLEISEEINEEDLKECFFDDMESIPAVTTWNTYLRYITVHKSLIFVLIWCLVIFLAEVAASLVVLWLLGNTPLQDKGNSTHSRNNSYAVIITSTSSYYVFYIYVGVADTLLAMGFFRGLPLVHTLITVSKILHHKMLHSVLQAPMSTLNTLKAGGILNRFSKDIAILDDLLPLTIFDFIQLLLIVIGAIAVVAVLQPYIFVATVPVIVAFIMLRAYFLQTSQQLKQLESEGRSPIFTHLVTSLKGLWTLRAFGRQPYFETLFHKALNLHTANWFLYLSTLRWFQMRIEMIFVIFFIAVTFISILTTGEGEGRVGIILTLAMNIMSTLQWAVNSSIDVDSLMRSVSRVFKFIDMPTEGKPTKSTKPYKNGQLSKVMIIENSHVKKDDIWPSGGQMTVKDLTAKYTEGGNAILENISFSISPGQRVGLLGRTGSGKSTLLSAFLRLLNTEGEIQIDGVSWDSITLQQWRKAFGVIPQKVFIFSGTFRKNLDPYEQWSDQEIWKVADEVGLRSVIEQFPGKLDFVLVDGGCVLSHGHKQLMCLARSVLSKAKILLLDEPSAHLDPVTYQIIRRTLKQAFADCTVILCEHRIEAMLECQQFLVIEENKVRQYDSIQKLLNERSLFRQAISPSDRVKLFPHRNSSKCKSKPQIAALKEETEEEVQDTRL
- assay summary: Cell Surface Expression-Horse Radish Peroxidase (CSE-HRP) Assay
- Format: cell-based
- assay context: with co-corrector; maximum at any tested concentration
readout type: Maximum % activity (with co-corrector)

# count of solved cases: 4
[[record]]
compound = "Cc1ccc2c(S(=O)(=O)NC(=O)C3(c4cc(C(F)(F)F)cnc4N(C)C)CC3)cccc2n1"
recorded_measurement = "+++ (≥350)"

[[record]]
compound = "Cc1cccc(C2(C(=O)NS(=O)(=O)c3ccccc3C)CCOCC2)c1"
recorded_measurement = "+ (<150)"

[[record]]
compound = "Cc1ccccc1S(=O)(=O)NC(=O)C1(c2ccc(Cl)cc2Cl)CC1"
recorded_measurement = "+++ (≥350)"

[[record]]
compound = "CCc1ccc(OC)c(C2(C(=O)NS(=O)(=O)c3cccc4nc(C)ccc34)CC2)c1"
recorded_measurement = "+++ (≥350)"


Data request, read-out Maximum % activity (with co-corrector), for O=C(NS(=O)(=O)CCCCl)C1(c2ccc(Cl)cc2Cl)CC1
++ (≥150 and <350)

Same lookup for COc1ccc(C)cc1C1(C(=O)NS(=O)(=O)c2cccc3ncccc23)CC1 , please.
+++ (≥350)

Same lookup for O=C(NS(=O)(=O)c1ccccc1)C1(c2ccc(Cl)cc2Cl)CC1 , please.
+++ (≥350)

Same lookup for COc1ncc(C2CCC2)cc1C1(C(=O)NS(=O)(=O)c2cccc3ncn(C)c23)CC1 , please.
+++ (≥350)

Same lookup for Cc1ccc(OC2COC2)c(C2(C(=O)NS(=O)(=O)c3cccc4nc(N)ccc34)CC2)c1 , please.
+++ (≥350)

Same lookup for COCC1(c2ccc(OC)c(C3(C(=O)NS(=O)(=O)c4cccc5ncccc45)CC3)c2)CC1 , please.
+++ (≥350)

Same lookup for COc1ccc(C2CCC2)cc1C1(C(=O)NS(=O)(=O)c2cccc3ccn(C)c23)CC1 , please.
+++ (≥350)

Same lookup for CCCS(=O)(=O)NC(=O)C1(c2cccc(OC)c2)CCOCC1 , please.
+ (<150)

Same lookup for COc1ccc(Br)cc1C1(C(=O)NS(=O)(=O)c2cccc3c2CCCN3)CCC1 , please.
+++ (≥350)

====

- target: F508delCFTR (Homo sapiens, UniProt P13569, DEL508-508)
- Construct: expressed in transfected cells; host or cells: CFBE41o- human lung derived epithelial cells (CFBE41o-F508delCFTR-HRP), doxycycline-inducible
- assay summary: Cell Surface Expression-Horse Radish Peroxidase (CSE-HRP) Assay
- Format: cell-based
- assay context: with co-corrector; maximum at any tested concentration
readout type: Maximum % activity (with co-corrector)

# count of solved cases: 10
[[record]]
compound = "COc1ccc(C(C)C)cc1C1(C(=O)NS(=O)(=O)c2cccc3c2CCCN3)CC1 [II-26]"
recorded_measurement = "+++ (≥350)"

[[record]]
compound = "COc1ccc(C2CCC2)c(C2(C(=O)NS(=O)(=O)c3cccc4nc(C)ccc34)CC2)c1 [II-47]"
recorded_measurement = "+++ (≥350)"

[[record]]
compound = "COc1ncc(C(F)(F)F)cc1C1(C(=O)NS(=O)(=O)c2cccc3nc(C)ccc23)CC1 [II-9]"
recorded_measurement = "+++ (≥350)"

[[record]]
compound = "O=C(NS(=O)(=O)c1ccc(Cl)cc1)C1(c2ccc(Cl)cc2Cl)CC1 [Example III-9]"
recorded_measurement = "+ (<150)"

[[record]]
compound = "O=C(NS(=O)(=O)CC(F)(F)F)C1(c2ccc(Cl)cc2Cl)CC1 [Example III-106]"
recorded_measurement = "+ (<150)"

[[record]]
compound = "COc1ncc(C2CCC2)cc1C1(C(=O)NS(=O)(=O)c2cccc3ncccc23)CC1 [Example I-4]"
recorded_measurement = "+++ (≥350)"

[[record]]
compound = "CCOC(C)(C)c1ccc(OC(F)F)c(C2(C(=O)NS(=O)(=O)c3cccc4ncccc34)CC2)c1 [II-106]"
recorded_measurement = "+++ (≥350)"

[[record]]
compound = "COc1ncc(C2CCC2)c(C)c1C1(C(=O)NS(=O)(=O)c2cccc3c2ccn3C)CC1 [II-41]"
recorded_measurement = "+++ (≥350)"

[[record]]
compound = "COc1ccc(C)c(C)c1C1(C(=O)NS(=O)(=O)c2cccc3nc(C)ccc23)CC1 [II-51]"
recorded_measurement = "+++ (≥350)"

[[record]]
compound = "COc1ccc(C2(OC)CCC2)cc1C1(C(=O)NS(=O)(=O)c2cccc3nc(C)ccc23)CC1 [II-100]"
recorded_measurement = "+++ (≥350)"


Data request, read-out Maximum % activity (with co-corrector), for O=C(NS(=O)(=O)C1CCNCC1)C1(c2ccc(Cl)cc2Cl)CC1 [Example III-77]
+ (<150)

Same lookup for O=C(NS(=O)(=O)c1ccc(-c2ccno2)s1)C1(c2ccc(Cl)cc2Cl)CC1 [Example III-17] , please.
+ (<150)

Same lookup for CCOc1ccc(C)cc1C1(C(=O)NS(=O)(=O)c2cccc3nc(NC)ccc23)CC1 [II-84] , please.
+++ (≥350)

====

The entries below come with measured Emax values attached.
- target: F508delCFTR (Homo sapiens, UniProt P13569, DEL508-508)
- Construct: expressed in transfected cells; host or cells: CFBE41o- human lung derived epithelial cells (CFBE41o-F508delCFTR-HRP), doxycycline-inducible
- assay summary: Cell Surface Expression-Horse Radish Peroxidase (CSE-HRP) Assay;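 for Maximum % activity (without co-corrector): % of on-plate positive control chromenyl benzoic acid corrector at 2 or 3 µM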
- Format: cell-based
- assay context: test compound without co-corrector; maximum at any tested concentration; read-out: Maximum % activity (without co-corrector)

# count of solved cases: 3
[[record]]
compound = "COc1cc(C2(C(=O)NS(=O)(=O)c3cccc4c3CCCN4)CC2)c(Cl)cn1 [GII-7]"
readout_type = "Emax"
recorded_measurement = "50 to 150%"

[[record]]
compound = "CCc1cnc(N2CCCC2)c(C2(C(=O)NS(=O)(=O)c3cccc4nc(C)ccc34)CC2)c1 [GII-31]"
readout_type = "Emax"
recorded_measurement = "> 150%"

[[record]]
compound = "CCc1cnc(N2CCC(OC(C)C)CC2)c(C2(C(=O)NS(=O)(=O)c3cccc4[nH]ccc34)CC2)c1 [Example GI-102]"
readout_type = "Emax"
recorded_measurement = "> 150%"


Query Emax on F508delCFTR (Homo sapiens, UniProt P13569, DEL508-508) for CCOc1ncc(C2CCC2)cc1C1(C(=O)NS(=O)(=O)c2cccc3nc(C)ccc23)CC1 [Example GI-115]
> 150%

Same lookup for CC(C)OC1CCN(c2ncc(C3CCC3)cc2C2(C(=O)NS(=O)(=O)c3cccc4ncccc34)CC2)CC1 [Example GI-105] , please.
> 150%

Same lookup for Cc1ccc2c(S(=O)(=O)NC(=O)C3(c4cc(N5CCCC5)cnc4OC(C)C)CC3)cccc2n1 [Example GI-63] , please.
> 150%

Same lookup for COCCOc1ncc(OC)cc1C1(C(=O)NS(=O)(=O)c2cccc3ncccc23)CC1 [GII-44] , please.
50 to 150%

Same lookup for COCCOc1ncc(OC)cc1C1(C(=O)NS(=O)(=O)c2cccc3[nH]ccc23)CC1 [GII-43] , please.
50 to 150%

====

The entries below come with measured Emax values attached.
- target: F508delCFTR (Homo sapiens, UniProt P13569, DEL508-508)
- Construct: expressed in transfected cells; host or cells: CFBE41o- human lung derived epithelial cells (CFBE41o-F508delCFTR-HRP), doxycycline-inducible
- assay summary: Cell Surface Expression-Horse Radish Peroxidase (CSE-HRP) Assay;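 for Maximum % activity (without co-corrector): % of on-plate positive control chromenyl benzoic acid corrector at 2 or 3 µM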
- Format: cell-based
- assay context: without co-corrector; maximum at any tested concentration; read-out: Maximum % activity (without co-corrector)

[[record]]
compound = "O=C(O)c1ccc(Cl)cc1S(=O)(=O)NC(=O)C1(c2ccc(Cl)cc2Cl)CC1"
recorded_measurement = "< 50%"

[[record]]
compound = "O=C(NS(=O)(=O)c1cccc2c(O)cccc12)C1(c2cccc(Cl)c2)CC1"
recorded_measurement = "< 50%"

[[record]]
compound = "CCc1ccc(OC)c(C2(C(=O)NS(=O)(=O)c3cccc4nc(N)ccc34)CC2)c1"
recorded_measurement = "> 150%"


Now for another entry.
Data request, read-out Emax, for COc1ccc(OC2CCOC2)cc1C1(C(=O)NS(=O)(=O)c2cccc3ncccc23)CC1 (centres unmarked)
50 to 150%

====

The entries below come with measured EC50 values attached.
- target: F508delCFTR (Homo sapiens, UniProt P13569, DEL508-508)
- Construct: expressed in transfected cells; host or cells: CFBE41o- human lung derived epithelial cells (CFBE41o-F508delCFTR-HRP), doxycycline-inducible
- assay summary: Cell Surface Expression-Horse Radish Peroxidase (CSE-HRP) Assay;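 for EC50 (with co-corrector): co-corrector chromenyl benzoic acid corrector at 2 or 3 µM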
- Type: cell-based
- assay context: test compound with co-corrector; read-out: EC50 (with co-corrector)

# count of solved cases: 2
[[record]]
structure = "COCC1CCN(c2ncc(C3CCC3)cc2C2(C(=O)NS(=O)(=O)c3cccc4[nH]ccc34)CC2)CC1"
target = "F508delCFTR (Homo sapiens, UniProt P13569, DEL508-508)"
readout_type = "EC50"
recorded_measurement = "< 3 µM"

[[record]]
structure = "CC(C)OC1CCN(c2ncc(C3CCC3)cc2C2(C(=O)NS(=O)(=O)c3cccc4[nH]ccc34)CC2)CC1"
target = "F508delCFTR (Homo sapiens, UniProt P13569, DEL508-508)"
readout_type = "EC50"
recorded_measurement = "< 3 µM"


Now for another entry.
Query EC50 on F508delCFTR (Homo sapiens, UniProt P13569, DEL508-508) for CCOc1ncc(CC)cc1C1(C(=O)NS(=O)(=O)c2cccc3ncccc23)CC1
< 3 µM
